Organism: Rattus norvegicus
Assay: Concentration required for the inhibition of insulin release from rat islets
Assay type: functional
parameter-measured: IC50 (µM)

P: CC(/N=C(\NC#N)Nc1cc(Cl)cc(Cl)c1)C(C)(C)C (configuration not stated)
Q: COc1cc(N/C(=N/CCC(C)C)NC#N)cc(C(F)(F)F)c1
Sorting ascending by IC50, which comes first: P or Q ? Write the label of whichever entry you select. P

====

Test system: Beta-TC6
Experiment: In vitro inhibition of insulin release from murine beta-TC6 cells
Format: functional, cell-based
Settings: Mus musculus
pIC50: −log10 of the molar value.
parameter-measured: pIC50

1. CC1=Nc2ccc(Cl)cc2S(=O)(=O)N1 [DIAZOXIDE]; 4.65
2. COc1cc(N/C(=N/CCC(C)C)NC#N)cc(C(F)(F)F)c1; 5.41
3. CC(/N=C(\NC#N)Nc1cc(C(F)(F)F)cc(C(F)(F)F)c1)C(C)(C)C (stereo unspecified); 5.34

1: CCC/N=C(\NC#N)Nc1cc(C(F)(F)F)cc(C(F)(F)F)c1
2: CC(C)CC/N=C(\NC#N)Nc1cc(Cl)cc(Cl)c1
3: CCC(C)(C)/N=C(\NC#N)Nc1cc(Cl)cc(Cl)c1
Kindly order the items shown according to pIC50, from the highest value down. # respond with the labels, arranged in the requested order 2, 3, 1

Sourced from ChEMBL document CHEMBL1134126
